Values compiled from patent US20230321012A1.

# protocolText: in vivo
# experimentalParameters: male, Th-MYCN, mouse, pancreas, sc, 2.5 mg/kg
reportedMetric: concentration at 96 h (ng/g)

smi=CCCCCCCCCCCCCCCC(=O)NCCCC[C@@H](N)C(=O)NCCCNCCCCNCCCN recordednumber=8430

###

# protocolText: clinical
# experimentalParameters: human, plasma, oral, Cmax Median, Part 1 Cohort 5, 1800 mg QD, Cycle 1 Day 28, +DFMO 500 mg/day
reportedMetric: Cmax (ng/mL)

smi=CCCCCCCCCCCCCCCC(=O)NCCCC[C@@H](N)C(=O)NCCCNCCCCNCCCN recordednumber=321

###

# protocolText: MALDI-FTICR imaging quantitation of DFMO in whole-body sections of Th-MYCN mice
# Assay type: in vivo, mouse
# experimentalParameters: male, Th-MYCN, mouse, liver, sc, 2.5 mg/kg, DFMO in Liver, COMBO (1% DFMO + AMXT 1501 2.5 mg/kg SC); mice 284, 286; 96 h
reportedMetric: concentration at 96 h (ng/g)

compound="NCCCC(N)(C(=O)O)C(F)F (stereo not shown)" reportedmetric="concentration at 96 h" unitssymbol=ng/g recordednumber=44700
